Tested on: Panc-1
Assay: MTS cell proliferation assay, Panc-1
Type: cell-based, human
Details: Homo sapiens, PANC-1; Example 4 numbering, 72 h; >10 = no effect; read-out: IC50 Panc-1 (Table 4)
endpointName: IC50 (µM)
Please reply with the bare figure in µM and do not write the unit itself.

Please review the following examples before continuing.
• C[C@H](NC(=O)c1cc(Cl)ccc1O)c1ccccc1 [Compound 9] = 8.44
• O=C(Nc1ccc2c(c1)S(=O)(=O)C=C2)c1cc(Cl)ccc1O [Compd 12] = 2.34

Moving on to another compound below.
Query: For N#C/C(=C\c1cccc(Br)n1)C(=O)Nc1ccc2c(c1)S(=O)(=O)C=C2 [Compound 10] , write its IC50.
Response: 1.64
